Value source: patent US11661431B2

- study-system: TLR7 (Homo sapiens (Human))
- assay-comment: TLR7 human peripheral blood mononuclear cell (PBMC) cell-based assay (GS-986 as agonist; IL-6 and IFNα readout)
- measurement-setup: human PBMCs, TLR7 agonist GS-986 at 400 nM, 6 hours, antagonist potency; read-out: TLR-7 EC50
measured-quantity: pEC50
The quantity pEC50 is defined as the negative base-10 logarithm of the molar concentration.

compound	measured-quantity	number
Cc1c(C2C[C@@H]3C[C@H]2CN3CC(N)=O)sc2[nH]c(-c3cc(C)c4ncnn4c3)c(C(C)C)c12 (stereo partly shown)	pEC50	9.92
Cc1c(-c2[nH]c3sc(C4C[C@@H]5C[C@H]4CC5N4CCS(=N)(=O)CC4)c(C)c3c2C(C)C)cn2ncnc2c1C (stereo partly shown)	pEC50	8.91
Cc1c(-c2[nH]c3sc(C4C[C@@H]5C[C@H]4CC5N4CC5(C4)CS(=O)(=O)C5)c(C)c3c2C(C)C)cn2ncnc2c1C (stereo partly shown)	pEC50	9.42
Cc1c(-c2[nH]c3sc(C4CCN(C5CCN(C)C5=O)CC4)c(C)c3c2C(C)C)cn2ncnc2c1C (stereo not shown)	pEC50	8.56

*Q* So what's the measured pEC50 for this one? "Cc1nc2c(C)cc(-c3[nH]c4sc(C5CCN(CC(N)=O)CC5)c(C)c4c3C(C)C)cn2n1"
*A* 9.13

*Q* So what's the measured pEC50 for this one? Cc1c(-c2[nH]c3sc(C4CC5(CCN(CC(N)=O)C5)C4)c(C)c3c2C(C)C)cn2ncnc2c1C (single isomer, unassigned) [Example 86]
*A* 8.61

###

- study-system: UniProtKB Q9NYK1
- assay-comment: TLR7 human peripheral blood mononuclear cell (PBMC) cell-based assay (GS-986 as agonist; IL-6 and IFNα readout)
- measurement-setup: human PBMCs, TLR7 agonist GS-986 at 400 nM, 6 hours, antagonist potency; read-out: TLR-7 EC50
measured-quantity: pEC50
The quantity pEC50 is defined as the negative base-10 logarithm of the molar concentration.

compound	measured-quantity	number
Cc1c(-c2[nH]c3sc(C4C[C@@H]5C[C@H]4CC5N4CCNC(=O)C4)c(C)c3c2C(C)C)cn2ncnc2c1C (stereo partly shown)	pEC50	8.89
CO[C@@H]1CN[C@@H](C(=O)N2CCC(c3sc4[nH]c(-c5cc(C)c6ncnn6c5)c(C(C)C)c4c3C)CC2)C1	pEC50	9.89
Cc1c(-c2[nH]c3sc(-c4ccc(C5CNCCO5)cc4)c(C)c3c2C(C)C)cn2ncnc2c1C (stereo not shown)	pEC50	9.62
Cc1c(C23CNCC2C3(F)F)sc2[nH]c(-c3cc(C)c4ncnn4c3)c(C(C)C)c12 (stereo not shown)	pEC50	8.30
Cc1c(-c2[nH]c3sc(C4COC5(CCN(CC(N)=O)CC5)C4)c(C)c3c2C(C)C)cn2ncnc2c1C (single isomer, unassigned) [Example 87]	pEC50	9.06

Here's the next entry for you.
*Q* Which pEC50 is reported with UniProtKB Q9NYK1 for this entry: "Cc1c(C2CCN(C(=O)[C@@H]3COC(C)(C)CN3)CC2)sc2[nH]c(-c3cc(C)c4ncnn4c3)c(C(C)C)c12" ?
*A* 9.03

###

- study-system: TLR7 (Homo sapiens (Human), UniProt Q9NYK1)
- Sequence (Q9NYK1 27-1049): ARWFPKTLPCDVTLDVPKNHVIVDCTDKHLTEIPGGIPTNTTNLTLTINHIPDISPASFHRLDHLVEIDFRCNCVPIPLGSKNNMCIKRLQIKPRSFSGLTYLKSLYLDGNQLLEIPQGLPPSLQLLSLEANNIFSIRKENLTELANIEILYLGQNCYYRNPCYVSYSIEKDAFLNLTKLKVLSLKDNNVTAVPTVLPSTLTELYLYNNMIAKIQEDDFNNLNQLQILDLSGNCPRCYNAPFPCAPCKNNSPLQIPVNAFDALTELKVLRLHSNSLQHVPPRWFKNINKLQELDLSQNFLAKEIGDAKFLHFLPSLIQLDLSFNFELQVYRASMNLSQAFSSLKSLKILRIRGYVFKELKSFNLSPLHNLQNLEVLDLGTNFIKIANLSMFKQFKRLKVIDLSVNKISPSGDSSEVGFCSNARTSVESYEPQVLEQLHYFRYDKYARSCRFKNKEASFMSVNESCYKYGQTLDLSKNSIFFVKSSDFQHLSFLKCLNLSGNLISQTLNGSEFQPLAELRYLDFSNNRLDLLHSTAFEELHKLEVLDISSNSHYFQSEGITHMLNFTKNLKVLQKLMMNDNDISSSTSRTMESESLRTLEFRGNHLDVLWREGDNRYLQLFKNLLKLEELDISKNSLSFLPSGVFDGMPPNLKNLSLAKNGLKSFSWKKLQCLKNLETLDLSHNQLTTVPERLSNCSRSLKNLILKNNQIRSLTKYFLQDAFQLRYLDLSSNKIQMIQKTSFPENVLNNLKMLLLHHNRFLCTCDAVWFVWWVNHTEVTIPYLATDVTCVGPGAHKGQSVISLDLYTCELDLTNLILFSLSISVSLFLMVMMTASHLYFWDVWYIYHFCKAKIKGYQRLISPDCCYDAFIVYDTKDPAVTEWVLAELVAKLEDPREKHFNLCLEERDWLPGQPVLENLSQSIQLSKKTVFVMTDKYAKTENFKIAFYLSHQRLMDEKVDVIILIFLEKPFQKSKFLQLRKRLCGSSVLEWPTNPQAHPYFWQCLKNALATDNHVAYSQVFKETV
- assay-comment: TLR7 human peripheral blood mononuclear cell (PBMC) cell-based assay (GS-986 as agonist; IL-6 and IFNα readout)
- measurement-setup: human PBMCs, TLR7 agonist GS-986 at 400 nM, 6 hours, antagonist potency; read-out: TLR-7 EC50
- Procedure: Human peripheral blood mononuclear cells (PBMCs) consist of lymphocytes, monocytes and dendritic cells that express TLR7, TLR8 and TLR9. […] After counting, the cell density was adjusted to 2 million cells/ml and incubated for 1 hour at 37° C., 5% CO2 for recovery. […] The level of cytokines (IL-6 and IFNα) in the supernatant was measured by electrochemiluminescence immunoassays (Mesoscale Discovery) following manufacturer's recommended protocols.
measured-quantity: pEC50
The quantity pEC50 is defined as the negative base-10 logarithm of the molar concentration.

compound	number
Cc1c(-c2[nH]c3sc(C4CC5(CCN(CCS(C)(=O)=O)C5)C4)c(C)c3c2C(C)C)cn2ncnc2c1C (single isomer, unassigned) [Example 313]	8.60

*Q* So what's the measured pEC50 for this one? Cc1c(-c2[nH]c3sc([C@@H]4C[C@@H]5C[C@H]4CN5C(=O)[C@H]4C[C@@H](F)CN4)c(C)c3c2C(C)C)cn2ncnc2c1C [Example 147]
*A* 9.64

*Q* So what's the measured pEC50 for this one? Cc1c(C2CCN(C(C)C(N)=O)CC2)sc2[nH]c(-c3cc(C)c4ncnn4c3)c(C(C)C)c12 (centres unmarked) [Example 27]
*A* 9.60

*Q* So what's the measured pEC50 for this one? Cc1c(C2CC2C(=O)N2CCNCC2)sc2[nH]c(-c3cc(C)c4ncnn4c3)c(C(C)C)c12 (centres unmarked) [Example 192]
*A* 6.56

*Q* So what's the measured pEC50 for this one? Cc1c(-c2[nH]c3sc(C4CCN(C(=O)[C@@H]5COCCN5)CC4)c(C)c3c2C(C)C)cn2ncnc2c1C [Example 92]
*A* 8.71

*Q* So what's the measured pEC50 for this one? Cc1c(-c2[nH]c3sc([C@@H]4C[C@@H]5C[C@H]4CN5CC(=O)N(C)C)c(C)c3c2C(C)C)cn2ncnc2c1C [Example 163]
*A* 9.52
